- Experimental target: KDR (phospho-KDR, VEGF165-stimulated HUVEC cells) (Homo sapiens (Human), UniProt P35968)
- Sequence (P35968 20-1356): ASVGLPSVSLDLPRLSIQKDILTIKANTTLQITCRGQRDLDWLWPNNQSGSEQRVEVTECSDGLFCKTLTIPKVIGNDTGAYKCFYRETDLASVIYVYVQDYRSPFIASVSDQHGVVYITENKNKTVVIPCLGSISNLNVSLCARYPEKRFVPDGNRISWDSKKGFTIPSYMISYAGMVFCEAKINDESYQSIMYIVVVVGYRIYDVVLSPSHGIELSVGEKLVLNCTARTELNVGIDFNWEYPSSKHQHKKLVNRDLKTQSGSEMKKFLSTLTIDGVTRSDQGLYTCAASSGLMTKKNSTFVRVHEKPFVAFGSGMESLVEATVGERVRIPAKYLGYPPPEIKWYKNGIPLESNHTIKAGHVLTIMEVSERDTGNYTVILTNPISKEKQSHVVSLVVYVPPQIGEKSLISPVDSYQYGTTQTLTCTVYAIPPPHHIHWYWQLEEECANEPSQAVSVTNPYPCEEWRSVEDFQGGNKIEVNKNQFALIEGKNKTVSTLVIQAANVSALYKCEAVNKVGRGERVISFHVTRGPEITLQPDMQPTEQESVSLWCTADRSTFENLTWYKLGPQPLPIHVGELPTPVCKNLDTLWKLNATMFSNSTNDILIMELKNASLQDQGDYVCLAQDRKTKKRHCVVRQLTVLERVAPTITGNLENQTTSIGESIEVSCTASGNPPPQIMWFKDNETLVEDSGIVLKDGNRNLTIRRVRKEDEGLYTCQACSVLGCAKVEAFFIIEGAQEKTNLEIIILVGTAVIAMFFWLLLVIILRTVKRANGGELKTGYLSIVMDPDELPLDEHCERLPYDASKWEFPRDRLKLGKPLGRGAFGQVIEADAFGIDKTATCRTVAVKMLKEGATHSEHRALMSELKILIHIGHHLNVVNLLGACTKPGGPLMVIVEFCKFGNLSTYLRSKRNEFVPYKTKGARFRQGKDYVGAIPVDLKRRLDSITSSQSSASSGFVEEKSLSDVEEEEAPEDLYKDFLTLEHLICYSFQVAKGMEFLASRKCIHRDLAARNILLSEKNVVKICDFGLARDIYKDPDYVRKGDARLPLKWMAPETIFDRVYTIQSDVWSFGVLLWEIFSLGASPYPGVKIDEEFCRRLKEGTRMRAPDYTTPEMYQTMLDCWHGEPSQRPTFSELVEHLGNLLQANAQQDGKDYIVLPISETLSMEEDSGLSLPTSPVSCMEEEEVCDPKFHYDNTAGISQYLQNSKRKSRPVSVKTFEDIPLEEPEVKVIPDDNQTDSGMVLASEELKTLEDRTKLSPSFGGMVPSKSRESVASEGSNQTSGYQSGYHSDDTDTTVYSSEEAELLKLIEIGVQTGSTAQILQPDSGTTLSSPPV
- Assay: KDR autophosphorylation ELISA in HUVEC cells (Example G)
- Assay type: cell-based
- Settings: cellular activity; KDR autophosphorylation ELISA in HUVEC cells
- Protocol: Human umbilical vein endothelial cells or HUVEC (Lonza #C2519A) were seeded at 2×10^4 cells/well onto 96-well plates (Corning #3904), in EGM-2 growth medium (Lonza #CC-3162) containing 1% Penicillin Streptomycin (Thermo Fisher #15140-122). […] IC50 values were calculated by nonlinear regression analysis using a 4-parameter logistic curve fit in ActivityBase XE (IDBS).
Provide the reported IC50 of each item.

The recorded IC50 for entry COc1ccc2nccc(Oc3ccc(NC(=O)c4ccc(C)n(-c5ccc(F)cc5)c4=O)cc3F)c2n1 [Compound 84] equals < 100 nM

The recorded IC50 for entry CNc1c(-c2ccc(F)cc2)c(=O)c(C(=O)Nc2ccc(Oc3ccnc4cc(OC)cnc34)c(F)c2)cn1C [Compound 585] equals > 300 nM

The recorded IC50 for entry C=Cc1c(C)c(C(=O)Nc2ccc(Oc3ccnc4cc(OCCOC)c(OC)nc34)c(F)c2)c(=O)n(-c2ccc(F)cc2)c1C [Compound 740] equals < 100 nM

The recorded IC50 for entry COc1ccc2c(Oc3ccc(NC(=O)c4cn(C(C)C)c(C)c(-c5ccc(F)cc5)c4=O)cc3F)ccnc2c1 [Compound 106] equals 100 to 300 nM

The recorded IC50 for entry COc1cnc2c(Oc3ccc(NC(=O)c4ccc(C)n(-c5ccc(F)cc5)c4=O)cc3F)ccnc2c1 [Compound 83] equals < 100 nM

The recorded IC50 for entry COc1cc2nccc(Oc3ccc(NC(=O)c4c(C)n(CCF)cc(-c5ccc(F)cc5C)c4=O)cc3F)c2nc1OC [Compound 756] equals < 100 nM

The recorded IC50 for entry COc1cnc2c(Oc3ccc(NC(=O)c4nnc(C)c(-c5ccc(F)cc5)c4OC)cc3)ccnc2c1 [Compound 515] equals < 100 nM

The recorded IC50 for entry COc1cnc2c(Oc3c(F)cc(NC(=O)c4c(C)nc(C)c(-c5ccc(F)cc5C)c4O)c(F)c3F)ccnc2c1 [Compound 768] equals < 100 nM

The recorded IC50 for entry COc1cc2ncnc(Oc3ccc(NC(=O)c4cn(-c5cnn(C)c5)cc(-c5ccc(F)cc5)c4=O)cc3F)c2nc1OC [Compound 637] equals > 300 nM

The recorded IC50 for entry COc1cnc2c(Oc3ccc(NC(=O)c4c(C)nc(C)n(-c5ccc(F)cc5)c4=O)cc3F)ccnc2c1 [Compound 257] equals < 100 nM

The recorded IC50 for entry COc1cnc2c(Oc3ccc(NC(=O)c4c(C)nc(C)c(-c5ccc(F)c(C)c5)c4O)cc3F)ccnc2c1 [Compound 689] equals < 100 nM

The recorded IC50 for entry CCOc1nc2c(Oc3ccc(NC(=O)c4c(COC)nc(C)c(-c5ccc(F)cc5)c4O)cc3F)ccnc2cc1OC [Compound 676] equals < 100 nM
